- test-protocol: Quantitative High-Throughput drug screen in 47 multiple myeloma cell lines against the NCATS MIPE library collection: OCIMY7_PLB cell viability assay (AID 1918987); note: nearly all actives have a fitted effect of over 65% in size
- test-context: OCI-MY7 myeloma viability, CellTiter-Glo ATP, 48 h
Results filed as inconclusive are left out. Calls of active or inactive are those of the source. Calls come from the whole dose curve; as a rule, active = well fitted cell-killing curve with a large enough effect; inconclusive = small, poorly fitted or top-dose-only effect, or effect the other way; inactive = no such curve, though single readings can be large or run the other way. Starred links: 1 amine or outer side, 2 acyl side, 3 side chain; linkers in the order of their positions; H or OH if unused. Positions of bridges follow the written chain, without caps; N, C: chain ends. Non-standard residues stand in square brackets, D forms with d. Residues, ends and D or L forms follow the SMILES beside them. Chains are numbered I, II in the order given. Actinocin(9to1) = Cc1c2oc3c(C)ccc(C(=O)[*:1])c3nc-2c(C(=O)[*:2])c(N)c1=O; NMeV = CN[CH](C(=O)O)C(C)C; Sar = CNCC(=O)O
Possible outcomes: active, inactive

compound=C[C@H](NCc1ccc2c(c1)nc(NC(=O)c1ccc(-c3cn[nH]c3)s1)n2CCc1ccccc1)C(C)(C)C class_assignment=active
compound=COc1ccc(C[C@@H](C)[C@@H](C)Cc2ccc(OC)c(OC)c2)cc1OC class_assignment=active
compound=C[C@@]12C[C@@]3(O)O[C@@H](O1)[C@]1(COC(=O)c4ccccc4)[C@@H]3C[C@@]12O[C@@H]1O[C@H](CO)[C@@H](O)[C@H](O)[C@@H]1O class_assignment=inactive
compound=NC(=NCCCCCCN=C(N)N=C(N)Nc1ccc(Cl)cc1)N=C(N)Nc1ccc(Cl)cc1 class_assignment=active
compound=COC1=C(OC)C(=O)C(CC=C(C)CCC=C(C)CCC=C(C)CCC=C(C)CCC=C(C)CCC=C(C)CCC=C(C)CCC=C(C)CCC=C(C)CCC=C(C)C)=C(C)C1=O class_assignment=inactive
compound=Oc1ccc([C@@H]2Oc3ccc(O)cc3[C@@H]3CCC[C@@H]32)cc1 class_assignment=active
compound=CC(C)(O)[C@H]1CC[C@@](C)([C@H]2[C@@H](O)C[C@@]3(C)[C@@H]4C[C@H](O[C@@H]5O[C@H](CO)[C@@H](O)[C@H](O)[C@@H]5O)[C@H]5C(C)(C)[C@@H](O[C@@H]6OC[C@@H](O)[C@H](O)[C@@H]6O)CC[C@@]56C[C@@]46CC[C@]23C)O1 class_assignment=inactive
compound=C#C[C@]1(O)CC[C@@H]2[C@@H]3CCC4=CC(=O)CC[C@@H]4[C@H]3CC[C@@]21CC class_assignment=inactive
compound="CCCNC(=O)[C@H]1O[C@H]1C(=O)N[C@H](C(=O)N1CCC[C@@H]1C(=O)OC)C(C)CC (stereo partly specified)" class_assignment=active
compound="Cc1c2oc3c(C)ccc(C(=O)NC4C(=O)NC(C(C)C)C(=O)N5CCCC5C(=O)N(C)CC(=O)N(C)C(C(C)C)C(=O)OC4C)c3nc-2c(C(=O)NC2C(=O)NC(C(C)C)C(=O)N3CCCC3C(=O)N(C)CC(=O)N(C)C(C(C)C)C(=O)OC2C)c(N)c1=O (stereo unspecified) (I: TVP[Sar][NMeV] / II: TVP[Sar][NMeV]; ester I:1-I:C, II:1-II:C; linker I:N-II:N via Actinocin(9to1); configuration not given here)" class_assignment=inactive
compound=O=C(O)C[C@H](O)C[C@H](O)C=Cc1c(C2CC2)nc2ccccc2c1-c1ccc(F)cc1 class_assignment=active
compound=CC(C=CC=C(C)C=CC1=C(C)CCCC1(C)C)=CC=CC=C(C)C=CC=C(C)C=CC1=C(C)CCCC1(C)C class_assignment=active
compound=CC(C)C[C@H](NC(=O)[C@@H](NC(=O)c1cccc(-c2ccccc2)n1)[C@@H](C)O)B(O)O class_assignment=active
compound=CN(C)c1ccc(C(=O)NCCCCCCC(=O)NO)cc1 class_assignment=active
compound=C#C[C@]1(O)CC[C@@H]2[C@@H]3CCc4cc(O)ccc4[C@H]3CC[C@@]21C class_assignment=active
compound=COc1cccc2c1C(=O)c1c(O)c3c(c(O)c1C2=O)C[C@@](O)(C(C)=O)C[C@H]3O[C@H]1C[C@H](N)[C@H](O)[C@H](C)O1 class_assignment=active

* * *

- test-protocol: Quantitative High-Throughput drug screen in 47 multiple myeloma cell lines against the NCATS MIPE library collection: AMO1_DSMZ cell viability assay (AID 1918927; note: nearly all actives have a fitted effect of over 30% in size)
- test-context: AMO1 myeloma cells viability, CellTiter-Glo ATP luminescence, 48 h; series mostly up to 45.8 µM
Inconclusive results are not listed. Calls of active or inactive are those of the source. The call rests on the fitted dose curve; in most records, active means well fitted cell-killing curve with a large enough effect; inconclusive means small, poorly fitted or top-dose-only effect, or effect the other way; inactive means no such curve, though single readings can be large or run the other way.
Outcomes: active, inactive

structure_notation=O=c1[nH]c(=O)n([C@H]2C[C@@H](O)[C@@H](CO)O2)cc1F class_assignment=active
structure_notation=Nc1ncn([C@@H]2O[C@H](CO)[C@@H](O)[C@@H]2O)c(=O)n1 class_assignment=active
structure_notation=Cc1onc(-c2ccccc2)c1C(=O)N[C@@H]1C(=O)N2[C@@H](C(=O)O)C(C)(C)S[C@@H]12 class_assignment=inactive
structure_notation=FC(F)c1nc2ccccc2n1-c1nc(N2CCOCC2)nc(N2CCOCC2)n1 class_assignment=active
structure_notation=Cc1coc2c1C(=O)C(=O)c1c-2ccc2c(C)cccc12 class_assignment=inactive
structure_notation=COc1cc(OC)c(NC(=O)Nc2cc(C)on2)cc1Cl class_assignment=inactive
structure_notation=CNC(=O)Nc1ccc(-c2nc(N3CC4CCC(C3)O4)c3cnn(C4CCC5(CC4)OCCO5)c3n2)cc1 class_assignment=active
structure_notation=C[N+]1(C)[C@@H]2C[C@@H](OC(=O)C(O)(c3cccs3)c3cccs3)C[C@H]1[C@@H]1O[C@@H]12 class_assignment=inactive
structure_notation=CCc1c(O)cc(O)c(C(=O)c2ccc(OCCN3CCOCC3)c(OC)c2)c1CC(=O)N(CCOC)CCOC class_assignment=inactive
structure_notation=CNC(=O)c1cccc(-c2ccc3c(N4CCOC[C@H]4C)nc(N4CCOC[C@H]4C)nc3n2)c1 class_assignment=active
structure_notation=CCc1cnn2c(NCc3ccc[n+]([O-])c3)cc(N3CCCC[C@@H]3CCO)nc12 class_assignment=active
structure_notation=NC1=N[C@H]2[C@H](CS[C@H]2CCCCC(=O)O)N1 class_assignment=inactive
structure_notation=CCOC(=O)N1CCN([N+]([O-])=NOc2ccc([N+](=O)[O-])cc2C#N)CC1 class_assignment=active
structure_notation=COc1ccnc2[nH]cc(C(=O)C(=O)N3CCN(C(=O)c4ccccc4)C[C@@H]3C)c12 class_assignment=inactive
structure_notation=N#CC(=C(O)c1ccc(Cl)cc1Cl)c1nc2cc(Cl)ccc2c(=O)[nH]1 class_assignment=active
structure_notation=CC(=O)NCC(=O)N1[C@H]2CC[C@H]1c1cc(Nc3ncc(C(F)(F)F)c(NC4CCC4)n3)ccc12 class_assignment=active
structure_notation=O=C1c2c(O)cccc2[C@@H]([C@@H]2O[C@H](CO)[C@@H](O)[C@H](O)[C@H]2O)c2cc(CO)cc(O)c21 class_assignment=inactive
structure_notation=O=C1NCCc2[nH]c(-c3ccncc3)cc21 class_assignment=active
structure_notation=COc1cc(C(C)C)c(Oc2cnc(NC(CO)CO)nc2N)cc1I class_assignment=active

* * *

- test-protocol: qHTS of pediatric cancer cell lines to identify multiple opportunities for drug repurposing: Primary screen for Rh41 cells (AID 1347108);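 note: luminescence drop marks cytotoxic hits; nearly all actives have a fitted effect of over 70% in size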
- test-context: Rh41 rhabdomyosarcoma viability, CellTiter-Glo luminescence, 48 h; series mostly up to 46 µM
Inconclusive results are not listed. The source made the active and inactive calls. Calls follow the shape of the dose curve; as a rule, active = well fitted cell-killing curve with a large enough effect; inconclusive = small, poorly fitted or top-dose-only effect; inactive = no such curve, though single readings can be large or run the other way.
measurement-kind: outcome

compound=C[C@H]1COc2c(N3CCN(C)CC3)c(F)cc3c(=O)c(C(=O)O)cn1c23 observed_value=inactive
compound="Cc1noc(-c2ccc(CSCCC(=O)O)cc2)c1NC(=O)OC(C)c1ccccc1Cl (stereo not given)" observed_value=inactive
compound=CC1(C)CC(O)CC(C)(C)N1[O] observed_value=inactive
compound="CC(=O)C1=C(O)C=C2Oc3c(C(C)=O)c(O)c(C)c(O)c3C2(C)C1=O (stereo not given)" observed_value=inactive
compound=O=C1c2c(O)cccc2[C@@H]([C@@H]2O[C@H](CO)[C@@H](O)[C@H](O)[C@H]2O)c2cc(CO)cc(O)c21 observed_value=inactive

* * *

- System: Zika virus NS2B-NS3 protease
- test-protocol: Primary screen GU AMC qHTS for Zika virus inhibitors (AID 1347154); note: nearly all actives have a fitted effect of over 70% in size; note: potency is the fitted concentration of half-maximal effect
- test-context: Zika NS2B-NS3 unlinked protease, AMC fluorogenic substrate; series mostly up to 54.1 µM
Results filed as inconclusive are left out. Activity calls are given as the source filed them. The call rests on the fitted dose curve; in most records, active means well fitted inhibition curve with a large enough effect; inconclusive means small, poorly fitted or top-dose-only effect; inactive means flat fitted curve, though single readings scatter.
measurement-kind: Potency

compound=NC1=N[C@H]2[C@H](CS[C@H]2CCCCC(=O)O)N1 observed_value=inactive
compound=Cc1ccc2nc(NCCN)c3ncc(C)n3c2c1 observed_value=inactive
compound=C[C@]12CC[C@@H]3c4ccc(O)cc4CC[C@H]3[C@H]1CC[C@H]2O observed_value=inactive
compound=C[C@@]12C[C@@]3(O)O[C@@H](O1)[C@]1(COC(=O)c4ccccc4)[C@@H]3C[C@@]12O[C@@H]1O[C@H](CO)[C@@H](O)[C@H](O)[C@@H]1O observed_value=inactive
compound="N[C@H]1CN(c2c(F)cc3c(=O)c(C(=O)O)cn(C4C[C@@H]4F)c3c2Cl)CC12CC2 (some centres undefined)" observed_value=inactive
compound=COc1cc(C(=O)NC2CCN(C)CC2)ccc1Nc1ncc2c(n1)N(C1CCCC1)CCC(=O)N2C(C)C observed_value=inactive
compound=Cc1ccc([N+](=O)[O-])cc1S(=O)(=O)N(C)N=Cc1cnc2ccc(Br)cn12 observed_value=inactive
compound=Cn1c(Nc2ccc(C(F)(F)F)cc2)nc2cc(Oc3ccnc(-c4ncc(C(F)(F)F)[nH]4)c3)ccc21 observed_value=inactive
compound=c1cc(N[C@@H]2CCNC2)nc(-c2cnc3ccc(-c4cn[nH]c4)cn23)c1 observed_value="19.2 µM (active)"
